Source listed as paper PMC8092340.

We begin with a simple list: items and their reported Cmax.
# ASSAY_DETAILS: In vivo pharmacokinetic study, plasma
# CONDITION_INFO: female, athymic nude, mouse, plasma, po, 30 mg/kg, Maximum concentration (Cmax), oral 30 mg/kg, female athymic nude mice; YU252222 given as methyl ester prodrug
OBSERVABLE: Cmax

1) CC(C)C1c2ccc(F)cc2CCC1(O)CCN1CC(Oc2ccc(Cl)cn2)CC1CO (centres unmarked) [YU252377] = 68.9 ng/mL
2) COCC(=O)O[C@]1(CCN(C)CCCc2nc3ccccc3[nH]2)CCc2cc(F)ccc2[C@@H]1C(C)C [Mibefradil, mibefradil] = 1090 ng/mL

###

# SYSTEM: CYP3A4 (Homo sapiens)
# Sequence (P08684 whole entry): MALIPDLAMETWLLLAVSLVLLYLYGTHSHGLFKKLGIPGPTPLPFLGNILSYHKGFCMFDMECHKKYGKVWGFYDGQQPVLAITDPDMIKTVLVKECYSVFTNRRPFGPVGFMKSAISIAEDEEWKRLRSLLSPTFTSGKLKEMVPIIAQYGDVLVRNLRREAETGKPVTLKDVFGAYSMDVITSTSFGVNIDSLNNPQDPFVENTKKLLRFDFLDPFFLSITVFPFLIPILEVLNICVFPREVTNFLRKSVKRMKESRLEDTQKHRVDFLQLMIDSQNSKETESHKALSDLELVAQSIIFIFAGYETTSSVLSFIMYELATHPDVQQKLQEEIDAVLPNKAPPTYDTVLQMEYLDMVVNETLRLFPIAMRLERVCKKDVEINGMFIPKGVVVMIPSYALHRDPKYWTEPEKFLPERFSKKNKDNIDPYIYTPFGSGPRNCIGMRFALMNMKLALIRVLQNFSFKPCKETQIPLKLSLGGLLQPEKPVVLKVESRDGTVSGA
pIC50: −log10 of the molar value.
OBSERVABLE: pIC50

1) CC(C)C(C(=O)NCCCN1CC=C(c2ccc(Cl)cc2)CC1)c1ccc(F)cc1 (stereo not shown) [YU252386] = 4.75

###

# Tested on: alt-NHEJ
# ASSAY_DETAILS: EJ-DR 384-well imaging assay, alt-NHEJ (RFP) readout
# CONDITION_INFO: Homo sapiens, U2OS, read-out: alt-NHEJ IC50
pIC50: −log10 of the molar value.
OBSERVABLE: pIC50

1) COC[C@@H]1C[C@@H](Oc2nccc3ccccc23)CN1CC[C@@]1(O)CCc2cc(F)ccc2[C@@H]1C(C)C [YU252373] = 5.77
2) CC(C)C1c2ccccc2CCN1C(=O)CC1CCN(C(=O)OC(C)(C)C)CC1 (stereo not shown) [YU241542] = 4.38
3) O=C(NC(CCN1CC(Oc2nccc3ccccc23)CC1CO)c1ccc(F)cc1)C1CCC(F)(F)CC1 (stereo not shown) [YU253106] = 5.85
4) CC(C)C(C(=O)NCCCN1CC=C(c2ccc(Cl)cc2)CC1)c1ccc(F)cc1 (stereo not shown) [YU252386] = 5.97
5) CC(C)C1c2ccc(F)cc2CCC1(O)CCN1CC(Oc2ccc(Cl)cn2)CC1CO (stereo not shown) [YU252377] = 5.82
6) CC(C)[C@H]1c2ccc(F)cc2CC[C@]1(O)CCN(C)CC(O)c1ccccc1 (stereo partly shown) [YU241553] = 5.05
7) CC(C)[C@H]1c2ccc(F)cc2CC[C@]1(O)CCN1C[C@H](Oc2nccc3ccccc23)C[C@H]1CO [YU252223] = 5.79
8) COCC(=O)OC1(CCN2CC(Oc3nccc4ccccc34)CC2CO)CCc2cc(F)ccc2C1C(C)C (stereo not shown) [YU252376] = 5.96

###

# System: HR
# ASSAY_DETAILS: EJ-DR 384-well imaging assay, HR (GFP) readout
# CONDITION_INFO: read-out: HR IC50; EJ-DR assay; Supplementary Table 2, mean ± SEM of four technical replicates
OBSERVABLE: IC50 (nM)

1) CC(=O)c1c(C)c2cnc(Nc3ccc(N4CCNCC4)cn3)nc2n(C2CCCC2)c1=O = 60

###

# SYSTEM: T type Cav 3.3 (Homo sapiens, UniProt Q9P0X4)
# ASSAY_DETAILS: Calcium channel blocking study, T-type Cav3.3
# CONDITION_INFO: HEK293 cells stably expressing the channel
OBSERVABLE: IC50

1. CC(C)C(C(=O)NCCCN1CC=C(c2ccc(Cl)cc2)CC1)c1ccc(F)cc1 (centres unmarked) [YU252386] = 1.1 µM
2. CC(C)C1c2ccc(F)cc2CCC1(O)CCN1CC(Oc2ccc(Cl)cn2)CC1CO (centres unmarked) [YU252377] = 8.2 µM

###

# ASSAY_DETAILS: Cytotoxicity in the absence of DSB ligands (CT), Hoechst cell count
# Type: cell-based, human
# CONDITION_INFO: human, EJ-DR U2OS cells; no DSB ligands; figures; read-out: CT IC50 (cytotoxicity)
Overview of reported IC50 at 96 h across a group of compounds:
OBSERVABLE: IC50 at 96 h

1) CC(C)[C@H]1c2ccc(F)cc2CC[C@]1(O)CCN(C)CC(O)c1ccccc1 (stereo partly drawn) = 24 µM
2) CC(C)C1c2ccccc2CCN1C(=O)CC1CCN(C(=O)OC(C)(C)C)CC1 (stereo not drawn) = > 60 µM
3) CC(C)[C@H]1c2ccc(F)cc2CC[C@]1(O)CC(=O)N(C)CCCc1nc2ccccc2[nH]1 = > 60 µM

###

# ASSAY_DETAILS: Microsomal half-life study
# Type: in vitro ADME
# CONDITION_INFO: mouse, mouse liver microsomes; read-out: mouse liver microsome half-life
OBSERVABLE: half-life (min)

1. COCC(=O)O[C@]1(CCN(C)CCCc2nc3ccccc3[nH]2)CCc2cc(F)ccc2[C@@H]1C(C)C = 15

###

Listing of entries alongside the reported pIC50.
# SYSTEM: Human hERG (Kv11.1) (Homo sapiens, UniProt Q12809)
# ASSAY_DETAILS: Automated hERG inhibition patch clamp assay
# CONDITION_INFO: patch clamp, CHO-K1 cells
pIC50: −log10 of the molar value.
OBSERVABLE: pIC50

1) COC[C@@H]1C[C@@H](Oc2nccc3ccccc23)CN1CC[C@@]1(O)CCc2cc(F)ccc2[C@@H]1C(C)C [YU252373] = 5.01
2) CC(C)[C@H]1c2ccc(F)cc2CC[C@]1(O)CCN1C[C@H](Oc2nccc3ccccc23)C[C@H]1CO [YU252223] = 5.17
3) CC(C)C1c2ccc(F)cc2CCC1(O)CCN1CC(Oc2ccc(Cl)cn2)CC1CO (stereo not drawn) [YU252377] = 5.19

###

# SYSTEM: L type Cav 1.2 (Homo sapiens, UniProt Q13936)
# Sequence (Q13936 whole entry): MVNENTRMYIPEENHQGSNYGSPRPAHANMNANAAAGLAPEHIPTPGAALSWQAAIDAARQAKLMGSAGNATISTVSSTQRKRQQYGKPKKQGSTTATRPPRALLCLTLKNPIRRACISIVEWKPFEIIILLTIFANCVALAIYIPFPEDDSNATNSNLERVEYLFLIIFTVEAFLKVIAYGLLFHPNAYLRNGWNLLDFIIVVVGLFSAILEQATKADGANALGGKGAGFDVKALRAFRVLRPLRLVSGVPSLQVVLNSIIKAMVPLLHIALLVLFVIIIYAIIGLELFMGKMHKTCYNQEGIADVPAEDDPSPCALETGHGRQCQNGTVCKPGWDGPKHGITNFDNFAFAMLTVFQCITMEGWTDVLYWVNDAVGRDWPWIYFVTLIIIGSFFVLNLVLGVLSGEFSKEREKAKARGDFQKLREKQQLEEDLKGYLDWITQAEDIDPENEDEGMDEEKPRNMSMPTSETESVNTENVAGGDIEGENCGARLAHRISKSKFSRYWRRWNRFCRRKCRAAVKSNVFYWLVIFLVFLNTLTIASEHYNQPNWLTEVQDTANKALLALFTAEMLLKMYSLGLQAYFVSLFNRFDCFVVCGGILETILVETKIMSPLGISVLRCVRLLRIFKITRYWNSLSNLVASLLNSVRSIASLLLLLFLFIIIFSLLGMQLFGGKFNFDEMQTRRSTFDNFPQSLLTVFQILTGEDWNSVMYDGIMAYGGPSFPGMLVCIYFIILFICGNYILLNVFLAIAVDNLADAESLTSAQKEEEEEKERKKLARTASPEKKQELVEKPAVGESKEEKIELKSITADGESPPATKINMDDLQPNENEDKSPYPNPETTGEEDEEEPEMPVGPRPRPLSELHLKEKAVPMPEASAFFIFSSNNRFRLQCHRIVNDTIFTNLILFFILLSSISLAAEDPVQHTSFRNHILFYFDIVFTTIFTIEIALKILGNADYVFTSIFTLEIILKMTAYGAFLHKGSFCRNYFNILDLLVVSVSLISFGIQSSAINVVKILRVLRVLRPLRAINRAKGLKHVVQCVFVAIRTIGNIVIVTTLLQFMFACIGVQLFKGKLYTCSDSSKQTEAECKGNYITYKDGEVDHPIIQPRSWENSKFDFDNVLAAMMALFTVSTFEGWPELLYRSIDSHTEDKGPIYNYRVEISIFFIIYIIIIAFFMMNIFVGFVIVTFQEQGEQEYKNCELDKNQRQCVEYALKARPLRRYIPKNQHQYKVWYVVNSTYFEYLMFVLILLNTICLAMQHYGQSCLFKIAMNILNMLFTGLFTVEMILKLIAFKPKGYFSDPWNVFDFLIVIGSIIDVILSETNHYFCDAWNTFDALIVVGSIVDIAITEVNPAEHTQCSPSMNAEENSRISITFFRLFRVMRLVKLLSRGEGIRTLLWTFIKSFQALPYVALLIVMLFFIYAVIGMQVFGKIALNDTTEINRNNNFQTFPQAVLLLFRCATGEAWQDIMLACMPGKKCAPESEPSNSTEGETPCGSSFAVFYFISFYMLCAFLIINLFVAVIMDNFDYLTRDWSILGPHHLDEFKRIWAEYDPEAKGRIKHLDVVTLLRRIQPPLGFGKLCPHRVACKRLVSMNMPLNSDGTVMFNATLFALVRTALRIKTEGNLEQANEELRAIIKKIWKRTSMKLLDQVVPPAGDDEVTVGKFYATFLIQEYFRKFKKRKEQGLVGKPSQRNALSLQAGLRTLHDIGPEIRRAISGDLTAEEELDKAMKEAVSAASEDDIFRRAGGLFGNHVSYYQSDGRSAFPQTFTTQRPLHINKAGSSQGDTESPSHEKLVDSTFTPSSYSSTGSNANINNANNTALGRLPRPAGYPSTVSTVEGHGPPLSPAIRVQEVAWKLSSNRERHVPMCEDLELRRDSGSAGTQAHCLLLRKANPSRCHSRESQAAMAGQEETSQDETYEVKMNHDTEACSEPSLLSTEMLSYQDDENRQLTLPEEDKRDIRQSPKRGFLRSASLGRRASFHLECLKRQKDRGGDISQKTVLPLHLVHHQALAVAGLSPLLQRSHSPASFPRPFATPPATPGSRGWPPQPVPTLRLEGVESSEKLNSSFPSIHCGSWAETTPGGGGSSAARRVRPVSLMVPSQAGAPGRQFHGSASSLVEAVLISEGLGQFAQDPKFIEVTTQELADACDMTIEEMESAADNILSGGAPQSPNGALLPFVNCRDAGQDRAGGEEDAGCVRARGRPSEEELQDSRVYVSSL
# Sequence (Q08289 whole entry partner): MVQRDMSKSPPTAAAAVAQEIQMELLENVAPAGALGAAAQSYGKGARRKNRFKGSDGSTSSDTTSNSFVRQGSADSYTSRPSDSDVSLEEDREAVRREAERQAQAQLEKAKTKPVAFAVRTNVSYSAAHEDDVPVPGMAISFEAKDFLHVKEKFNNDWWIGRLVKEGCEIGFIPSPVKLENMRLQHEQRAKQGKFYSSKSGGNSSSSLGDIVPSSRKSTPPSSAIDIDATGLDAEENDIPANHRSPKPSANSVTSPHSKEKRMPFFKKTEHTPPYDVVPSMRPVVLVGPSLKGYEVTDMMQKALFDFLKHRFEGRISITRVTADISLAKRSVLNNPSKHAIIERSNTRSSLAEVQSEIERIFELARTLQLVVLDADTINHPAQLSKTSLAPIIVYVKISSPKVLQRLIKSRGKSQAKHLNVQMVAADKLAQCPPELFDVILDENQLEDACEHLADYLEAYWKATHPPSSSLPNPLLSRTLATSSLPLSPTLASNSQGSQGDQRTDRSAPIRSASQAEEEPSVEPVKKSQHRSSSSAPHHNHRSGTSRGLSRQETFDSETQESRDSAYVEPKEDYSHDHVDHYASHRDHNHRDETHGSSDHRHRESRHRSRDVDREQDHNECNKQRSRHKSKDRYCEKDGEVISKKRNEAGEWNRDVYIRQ
# Sequence (P54289 25-946 partner limits assumed): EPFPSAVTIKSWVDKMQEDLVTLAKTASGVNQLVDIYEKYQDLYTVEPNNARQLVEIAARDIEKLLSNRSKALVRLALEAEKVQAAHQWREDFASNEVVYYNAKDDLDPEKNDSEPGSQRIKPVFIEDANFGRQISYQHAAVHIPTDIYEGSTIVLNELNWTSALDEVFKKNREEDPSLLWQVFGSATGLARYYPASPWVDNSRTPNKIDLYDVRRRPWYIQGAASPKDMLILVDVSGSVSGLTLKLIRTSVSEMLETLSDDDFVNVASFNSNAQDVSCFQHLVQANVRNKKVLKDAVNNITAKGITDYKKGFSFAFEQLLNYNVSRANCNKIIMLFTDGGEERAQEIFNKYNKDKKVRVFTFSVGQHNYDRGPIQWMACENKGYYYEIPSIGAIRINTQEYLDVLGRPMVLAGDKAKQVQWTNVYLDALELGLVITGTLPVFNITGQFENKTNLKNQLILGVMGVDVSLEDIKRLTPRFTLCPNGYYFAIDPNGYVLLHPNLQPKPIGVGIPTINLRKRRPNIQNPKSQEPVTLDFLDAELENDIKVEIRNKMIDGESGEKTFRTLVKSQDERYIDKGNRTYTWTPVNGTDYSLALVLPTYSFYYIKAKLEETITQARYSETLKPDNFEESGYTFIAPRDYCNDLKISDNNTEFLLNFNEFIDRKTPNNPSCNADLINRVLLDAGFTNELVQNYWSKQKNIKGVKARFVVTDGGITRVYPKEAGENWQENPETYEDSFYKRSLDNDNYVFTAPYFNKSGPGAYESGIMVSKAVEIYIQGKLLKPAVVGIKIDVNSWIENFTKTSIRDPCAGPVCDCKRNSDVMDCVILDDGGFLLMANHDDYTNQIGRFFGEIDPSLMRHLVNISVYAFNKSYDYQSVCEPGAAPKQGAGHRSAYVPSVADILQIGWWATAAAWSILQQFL
# Sequence (P54289 947-1103 partner limits assumed): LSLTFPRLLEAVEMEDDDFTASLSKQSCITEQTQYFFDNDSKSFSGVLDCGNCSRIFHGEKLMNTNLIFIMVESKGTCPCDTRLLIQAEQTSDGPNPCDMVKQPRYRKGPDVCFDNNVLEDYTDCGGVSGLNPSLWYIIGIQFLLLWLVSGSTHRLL
# ASSAY_DETAILS: Calcium channel blocking study, L-type
# CONDITION_INFO: CHO cells stably expressing the channel
OBSERVABLE: IC50 (µM)

1) CC(C)C1c2ccc(F)cc2CCC1(O)CCN1CC(Oc2ccc(Cl)cn2)CC1CO (centres unmarked) [YU252377] = 6.3
2) CC(C)C(C(=O)NCCCN1CC=C(c2ccc(Cl)cc2)CC1)c1ccc(F)cc1 (centres unmarked) [YU252386] = 5.6
